Would you kindly list interaction score for each of these binders?
# SUBJECT OF TEST: T1, 4H457-bH
# T1 chain: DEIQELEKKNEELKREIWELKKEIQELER
# ASSAY METHOD TEXT: two-hybrid library CCNG1;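 further: natural log of median RNA to DNA barcode read ratio; higher means stronger binding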
Numbers only.

BINDER	interaction score
DKIQELKKKNEELKREIWELEKEIQELKR [4H3010-bH]	0.658

List interaction score for every entry below, keeping the order given.
1. DEIQELEKKNEELKREIWELKKEIQELER [4H457-bH]
2. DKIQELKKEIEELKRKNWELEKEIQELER [4H2673-bH]
3. DKNQELKKKNEELKRKIWELKKEIQELER [4H4073-bH]
4. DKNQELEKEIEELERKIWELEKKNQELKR [4H3112-bH]
5. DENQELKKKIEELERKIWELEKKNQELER [4H1831-bH]

Reply text:
[0.207, -0.154, -0.419, -1.29, 0.724]

Inquiry: Given the entry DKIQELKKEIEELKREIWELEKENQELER [4H2627-bH] , report its measured interaction score.
Reply text: -1.91
